- target.of.assay: cytoplasmic domain of the human VEGF receptor (VEGFR-2) (Homo sapiens)
- Construct: The cytoplasmic domain of the human VEGF receptor (VEGFR-2) was expressed as a Histidine-tagged fusion protein; Histidine tag
- assay.name: KDR Assay
- measurement.setup: His-VEGFR-2; 3.6 μM ATP
test.readout: IC50 (nM)
Note: unit nM is implicit; provide only the numeric part.

> print(dat)
                                  molecule  units.label  recorded.number
1  NC(=O)c1ccc(NC=C2C(=O)Nc3ccc(F)cc32)cc1           nM              410
2        COc1ccc(NC=C2C(=O)Nc3ccccc32)cc1F           nM              720
3        O=C1Nc2ccc(F)cc2C1=CNc1ccc(CO)cc1           nM              530

## Task Tell us which IC50 value is on record for COc1ccc(NC=C2C(=O)Nc3ccc(F)cc32)cc1O
## Result 380

## Task Give IC50 for the following molecule: CN1CCN(c2ccc(NC=C3C(=O)Nc4ccccc43)cc2)CC1
## Result 250

## Task Please supply the value of reported IC50 for the item O=C1Nc2cc(F)ccc2C1=CNc1ccc(NCCCN2CCOCC2)cc1
## Result 340

## Task Give me measured IC50, please, for this molecule: O=C(O)CCc1ccc(NC=C2C(=O)Nc3ccccc32)cc1
## Result 460

## Task Please indicate IC50 recorded for Cc1cccc2c1C(=CNc1cccc(CCC(=O)O)c1)C(=O)N2
## Result 210

## Task Check the records and state IC50 for NS(=O)(=O)c1ccc(NC=C2C(=O)Nc3ccc(F)cc32)cc1
## Result 660

## Task Answer with the recorded IC50 of O=C1Nc2ccc(F)cc2C1=CNc1ccc2ncsc2c1 only.
## Result 520

## Task // fetch IC50 given entry O=C1Nc2ccc(F)cc2C1=CNc1ccc(CN2CCOCC2)cc1
## Result 380

## Task Tell us which IC50 value is on record for O=C1Nc2ccccc2C1=CNc1ccc(N2CCCCC2)cc1
## Result 390

## Task Read the entry O=C1Nc2ccc(F)cc2C1=CNc1ccc(OCCN2CCCC2)cc1 and write its reported IC50.
## Result 210

## Task Tell us which IC50 value is on record for O=C1Nc2ccccc2C1=CNc1ccc(CCO)cc1
## Result 460

## Task Report IC50 for O=C1Nc2ccc(Cl)cc2C1=CNc1ccc(NCCN2CCOCC2)cc1
## Result 140

## Task Output measured IC50 for this item: CC1CN(c2ccc(NC=C3C(=O)Nc4ccc(F)cc43)cc2)CC(C)O1 (centres unmarked)
## Result 220

## Task State its IC50: COc1cccc(-c2ccc3c(c2)NC(=O)C3=CNc2ccc(N3CCN(C)CC3)cc2)c1
## Result 80

## Task Using known records, supply IC50 for NC(=O)c1ccc(NC=C2C(=O)Nc3ccccc32)cc1
## Result 880

## Task Tell me its IC50 given Cc1cccc2c1C(=CNc1ccc(CN3CCCCC3)cc1)C(=O)N2 as the entry.
## Result 190

## Task Give a short answer stating reported IC50 for CCN(CC)CCCOc1ccc(NC=C2C(=O)Nc3cc(F)ccc32)cc1F .
## Result 150

* * *

Form field: pIC50 (one value per entry).
- target.of.assay: cytoplasmic domain of the human VEGF receptor (VEGFR-2) (Homo sapiens, UniProt P35968)
- Construct: The cytoplasmic domain of the human VEGF receptor (VEGFR-2) was expressed as a Histidine-tagged fusion protein; Histidine tag
- Sequence (P35968 786-1356): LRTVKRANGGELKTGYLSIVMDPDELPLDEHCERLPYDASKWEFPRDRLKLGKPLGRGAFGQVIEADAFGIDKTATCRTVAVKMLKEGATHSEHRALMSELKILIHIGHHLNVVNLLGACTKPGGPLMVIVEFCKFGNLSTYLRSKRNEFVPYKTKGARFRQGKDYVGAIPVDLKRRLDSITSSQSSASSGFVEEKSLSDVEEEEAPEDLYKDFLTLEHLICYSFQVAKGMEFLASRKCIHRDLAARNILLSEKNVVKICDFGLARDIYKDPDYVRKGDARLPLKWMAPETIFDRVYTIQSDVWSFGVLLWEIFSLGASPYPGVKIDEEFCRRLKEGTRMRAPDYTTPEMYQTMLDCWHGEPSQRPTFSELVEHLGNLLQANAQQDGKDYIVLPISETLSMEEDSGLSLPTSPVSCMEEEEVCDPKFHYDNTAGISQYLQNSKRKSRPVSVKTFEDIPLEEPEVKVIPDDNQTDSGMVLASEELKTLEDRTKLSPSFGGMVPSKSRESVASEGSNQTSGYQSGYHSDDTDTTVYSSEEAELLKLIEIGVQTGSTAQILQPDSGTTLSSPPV
- assay.name: KDR Assay
- measurement.setup: His-VEGFR-2; 3.6 μM ATP
pIC50 here: minus log base 10 of the concentration, concentration in moles per litre.

Worked cases, pIC50 given:
> print(dat)
                                    compound  recorded.number
 1     O=C1Nc2ccc(F)cc2C1=CNc1ccc2[nH]ccc2c1             6.52
 2  CC1CN(c2ccc(NC=C3C(=O)Nc4cc(F)ccc43)cc2)CC(C)O1 (centres unmarked)             6.96
 3  Cc1cccc2c1C(=CNc1ccc(CCC(=O)O)cc1)C(=O)N2             6.72
 4  CC1CN(c2ccc(NC=C3C(=O)Nc4ccccc43)cc2)CC(C)O1 (centres unmarked)             6.46
 5  Cc1cccc2c1C(=CNc1ccc(CCN3CCCCC3)cc1)C(=O)N2             7.40
 6      COc1cc(NC=C2C(=O)Nc3ccccc32)cc(OC)c1             5.90
 7  O=C1Nc2ccc(F)cc2C1=CNc1ccc(CN2CCCCC2)cc1             6.25
 8      COc1cccc(NC=C2C(=O)Nc3ccc(Cl)cc32)c1             5.73
 9          Cc1ccc(NC=C2C(=O)Nc3ccccc32)cc1N             6.30
10            O=C1Nc2ccccc2C1=CNc1ccc(CO)cc1             6.39

## Task Fill in pIC50 for record COc1cccc(-c2ccc3c(c2)NC(=O)C3=CNc2ccc(N3CCOCC3)cc2)c1
## Result 5.77

## Task For the compound O=C1Nc2ccc(F)cc2C1=CNc1cccc(O)c1 , report pIC50.
## Result 6.12

## Task Determine its reported pIC50: CCN(CC)Cc1cc(NC=C2C(=O)Nc3ccc(Cl)cc32)ccc1O
## Result 6.22

## Task Consider the compound O=C1Nc2ccc(F)cc2C1=CNc1ccc(CCN2CCCCC2)cc1 . State its measured pIC50.
## Result 6.48

## Task Answer with the recorded pIC50 for the compound listed here: O=C1Nc2cc(F)ccc2C1=CNc1ccc(CCN2CCCCC2)cc1
## Result 6.59

## Task Report pIC50 for Cc1cccc2c1C(=CNc1ccc(O)cc1)C(=O)N2
## Result 6.70

## Task Return value of pIC50 for input CCN(CC)CCOc1ccc(NC=C2C(=O)Nc3ccccc32)cc1 , no commentary.
## Result 6.21

## Task Provide only the value of recorded pIC50 for O=C(O)CCCc1ccc(NC=C2C(=O)Nc3ccccc32)cc1
## Result 6.28

## Task Let me know recorded pIC50 for CCN(CC)c1ccc(NC=C2C(=O)Nc3cccc(C)c32)cc1 , thanks.
## Result 7.15

## Task Please report the measured pIC50 for Cc1cccc2c1C(=CNc1ccc(NCCN3CCOCC3)cc1)C(=O)N2
## Result 7.15

* * *

- target.of.assay: cytoplasmic domain of the human VEGF receptor (VEGFR-2) (Homo sapiens)
- Construct: The cytoplasmic domain of the human VEGF receptor (VEGFR-2) was expressed as a Histidine-tagged fusion protein; Histidine tag
- assay.name: KDR Assay
- measurement.setup: His-VEGFR-2; 3.6 μM ATP
IC50 for assorted compounds
The response must be a number in nM with no trailing unit.

Recorded results for 3 compounds are shown here.
> print(dat)
                                   compound                           target.of.assay  test.readout  units.label  recorded.number
1  Nc1ccc(NC=C2C(=O)Nc3ccccc32)cc1 [Example 180]  cytoplasmic domain of the human VEGF receptor (VEGFR-2) (Homo sapiens)          IC50           nM              440
2  O=C1Nc2ccc(F)cc2C1=CNc1ccc(CCN2CCOCC2)cc1 [Example 310]  cytoplasmic domain of the human VEGF receptor (VEGFR-2) (Homo sapiens)          IC50           nM              230
3  O=C1Nc2ccc(Cl)cc2C1=CNc1ccc(CCN2CCCCC2)cc1 [Example 285]  cytoplasmic domain of the human VEGF receptor (VEGFR-2) (Homo sapiens)          IC50           nM              110

## Task Report value only: IC50, cytoplasmic domain of the human VEGF receptor (VEGFR-2) (Homo sapiens), CCc1cccc(NC=C2C(=O)Nc3ccc(F)cc32)c1 [Example 176]
## Result 800

## Task Write down measured IC50 (cytoplasmic domain of the human VEGF receptor (VEGFR-2) (Homo sapiens)) for this compound. O=C1Nc2ccccc2C1=CNc1ccc(OCCN2CCCCC2)cc1 [Example 254]
## Result 500

## Task GET IC50 where system = cytoplasmic domain of the human VEGF receptor (VEGFR-2) (Homo sapiens) and item = CCN(CC)CCCOc1ccc(NC=C2C(=O)Nc3ccccc32)cc1F [Example 248]
## Result 630

## Task Determine reported IC50 for O=C1Nc2ccccc2C1=CNc1ccc(OCCCI)cc1 [Example 200] ; test system: cytoplasmic domain of the human VEGF receptor (VEGFR-2) (Homo sapiens).
## Result 740

## Task Would you please give the reported IC50 of O=C1Nc2ccc(F)cc2C1=CNc1ccc(NCCCN2CCOCC2)cc1 [Example 300] with cytoplasmic domain of the human VEGF receptor (VEGFR-2) (Homo sapiens)?
## Result 420

## Task Would you please give the reported IC50 of O=C1Nc2cc(F)ccc2C1=CNc1ccc(CN2CCCCC2)cc1 [Example 259] with cytoplasmic domain of the human VEGF receptor (VEGFR-2) (Homo sapiens)?
## Result 300

## Task Name the value of IC50 reported for O=C1Nc2ccccc2C1=CNc1ccc(OCCN2CCCC2)cc1 [Example 272] when tested on cytoplasmic domain of the human VEGF receptor (VEGFR-2) (Homo sapiens).
## Result 460

## Task Look up and report measured IC50 (cytoplasmic domain of the human VEGF receptor (VEGFR-2) (Homo sapiens)) for the following compound: O=C1Nc2ccccc2C1=CNc1cccc(S(=O)(=O)NCCCO)c1 [Example 193]
## Result 2470
